# Test system: 324938-238-R-J1-PDC complex spheroids viability
# protocol description: Anticancer human tumor 324938-238-R-J1-PDC patient-derived bladder carcinoma cell line growth inhibition [CLK]
# condition summary: second compound 0.0316 µM; first compound 3.16 µM; stronger effect = lower value
Record form. Attribute: viability, T/C. Fill in for each entry.
Give bare numbers, in %.

In the examples that follow, each entry is paired with its recorded viability, T/C.
CCCS(=O)(=O)Nc1ccc(F)c(C(=O)c2c[nH]c3ncc(-c4ccc(Cl)cc4)cc23)c1F + CNC(=O)c1ccc(Nc2nc(OC3CCCC3)c3c(-c4ccc5nc(C)oc5c4)c[nH]c3n2)c(OC)c1 :: 98.6
C=C(F)C(=O)N1CCN(c2nc(OCC3CCCN3C)nc3c2CCN(c2cccc4cccc(Cl)c24)C3)CC1CC#N (stereo not given) + CNC(=O)c1ccc(Nc2nc(OC3CCCC3)c3c(-c4ccc5nc(C)oc5c4)c[nH]c3n2)c(OC)c1 :: 41.3
CC1COCCN1c1cc(C2(S(C)(=N)=O)CC2)nc(-c2ccnc3[nH]ccc23)n1 (stereo not given) + CNC(=O)c1ccc(Nc2nc(OC3CCCC3)c3c(-c4ccc5nc(C)oc5c4)c[nH]c3n2)c(OC)c1 :: 31.1
Nc1ccccc1NC(=O)c1ccc(CNC(=O)OCc2cccnc2)cc1 + CN1CCN(c2cc(C(=O)Nc3cc4cc(-c5cnn(C)c5)ccc4cn3)ccn2)CC1 :: 32.2

Proceed to the following item.
Quick one: viability, T/C for O=c1[nH]cc(F)c(=O)[nH]1 + CNC(=O)c1ccc(Nc2nc(OC3CCCC3)c3c(-c4ccc5nc(C)oc5c4)c[nH]c3n2)c(OC)c1 ? 22.2

====

# Tested on: 324938-238-R-J1-PDC complex spheroids viability
# protocol description: Anticancer human tumor 324938-238-R-J1-PDC cell line growth inhibition [CLK];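 further: viability read after seven days of drug exposure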
# condition summary: curve of compound
Exercise: state measured IC50 for each of the compounds provided.

C=CC(=O)N1CCN(c2nc(=O)n(-c3c(C)ccnc3C(C)C)c3nc(-c4c(O)cccc4F)c(F)cc23)C(C)C1 (stereo not given) :: > 10000 nM
COc1cccc2c1C(=O)c1c(O)c3c(c(O)c1C2=O)CC(O)(C(=O)CO)CC3OC1CC(N)C(O)C(C)O1 (stereo not given) :: < 31.6 nM
CC(=O)O[C@H]1C(=O)[C@@]2(C)[C@H]([C@H](OC(=O)c3ccccc3)[C@]3(O)C[C@H](OC(=O)[C@H](O)[C@@H](NC(=O)c4ccccc4)c4ccccc4)C(C)=C1C3(C)C)[C@]1(OC(C)=O)CO[C@@H]1C[C@@H]2O :: < 31.6 nM
Nc1ccn(C2OC(CO)C(O)C2(F)F)c(=O)n1 (stereo not given) :: < 31.6 nM

Tell me the measured IC50 of CCc1c2c(nc3ccc(O)cc13)-c1cc3c(c(=O)n1C2)COC(=O)[C@]3(O)CC , please. < 3.16 nM

====

# Test system: 324938-238-R-J1-PDC complex spheroids viability
# protocol description: Anticancer human tumor 324938-238-R-J1-PDC cell line growth inhibition [CLK];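 further: viability read after seven days of drug exposure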;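 on viability, T/C: 100% = DMSO vehicle control wells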
# condition summary: second compound 10 µM; first compound 0.03 µM; stronger effect = lower value
value kind: viability, T/C

CC(C)CC(NC(=O)C(Cc1ccccc1)NC(=O)c1cnccn1)B(O)O (stereo not drawn) + CN1CCN(c2cc(C(=O)Nc3cc4cc(-c5cnn(C)c5)ccc4cn3)ccn2)CC1 :: 0.22%
C=CC(=O)Nc1cc(Nc2nccc(-c3cn(C)c4ccccc34)n2)c(OC)cc1N(C)CCN(C)C + CNC(=O)c1ccc(Nc2nc(OC3CCCC3)c3c(-c4ccc5nc(C)oc5c4)c[nH]c3n2)c(OC)c1 :: 13.2%

Would you kindly look at the next entry?
Look at this molecule and give its reported viability, T/C. CC(C)CC(NC(=O)C(Cc1ccccc1)NC(=O)c1cnccn1)B(O)O (stereo not drawn) + CNC(=O)c1ccc(Nc2nc(OC3CCCC3)c3c(-c4ccc5nc(C)oc5c4)c[nH]c3n2)c(OC)c1 0.13%
